- system-name: human SLC6A19 (Homo sapiens)
- Construct: expressed in transfected cells
- assay-notes: Example B-1: L-[3H]leucine uptake, liquid scintillation, in CHO cells with doxycycline-inducible expression of human SLC6A19 and TMEM27
- Assay type: cell-based
- experimental-conditions: read-out: SLC6A19_Radioligand Uptake Assay IC50
experimental-readout: pIC50
Give bare numbers, as −log10 of the molar value.

For every listed record, write down its pIC50.
1. CN(C(=O)NCc1cc2cc(Cl)ccc2[nH]1)[C@@H]1CCCN(C(=O)NC2CCC2)C1 [Compound 211]
2. Cc1cc(C(=O)N2CCC[C@@H](N(C)C(=O)NCc3cc4cc(Cl)ccc4[nH]3)C2)nn1C [Compound 236]
3. CCNC(=O)N1CCC[C@@H](N(C)C(=O)NCc2cc3cc(Cl)ccc3[nH]2)C1 [Compound 209]

Key:
5.87
6.01
6.90

Give me pIC50 for each of these compounds, listed below.
1. CC(=O)N1CCC[C@@H](N(C(=O)NCc2cc3cc(Cl)ccc3[nH]2)C2CC2)C1 [Compound 222]
2. CN(C(=O)NCc1cc2cc(Cl)ccc2[nH]1)[C@@H]1CCCN(C(=O)C2CCO2)C1 (stereo partly shown) [Compound 116]
3. CCN(C(=O)NCc1cc2cc(Cl)ccc2[nH]1)[C@@H]1CCCN(C(C)=O)C1 [Compound 163]
4. CN(C(=O)NCc1cc2cc(Cl)ccc2[nH]1)[C@@H]1CCCN(C(=O)C2CC(CO)C2)C1 (stereo partly shown) [Compound 121]
5. CN(C(=O)NCc1cc2cc(Cl)ccc2[nH]1)[C@@H]1CCCN(C(=O)c2ccc(O)cc2)C1 [Compound 189]
6. CCn1ccc(C(=O)N2CCC[C@@H](N(C)C(=O)NCc3cc4cc(Cl)ccc4[nH]3)C2)n1 [Compound 240]
7. CN(C(=O)NCc1cc2cc(Cl)ccc2[nH]1)[C@@H]1CCCN(C(=O)NCC(F)(F)F)C1 [Compound 210]
8. Cc1ocnc1C(=O)N1CCC[C@@H](N(C)C(=O)NCc2cc3cc(Cl)ccc3[nH]2)C1 [Compound 187]

Key:
1. 6.71
2. 6.29
3. 6.84
4. 6.55
5. 6.58
6. 6.81
7. 6.05
8. 5.91

Provide each entry's pIC50 from the list below.
1. CNC(=O)N1CCC[C@@H](N(C)C(=O)NCc2cc3cc(Cl)ccc3[nH]2)C1 [Compound 171]
2. CC(C)NC(=O)N1CCC[C@@H](N(C)C(=O)NCc2cc3cc(Cl)ccc3[nH]2)C1 [Compound 213]
3. CCN(C(=O)NCc1cc2cc(Cl)c(OCc3ccon3)cc2[nH]1)[C@@H]1CCCN(C(C)=O)C1 [Compound 137]
4. CN(C)C(=O)N1CCC[C@@H](N(C)C(=O)NCc2cc3cc(Cl)ccc3[nH]2)C1 [Compound 208]

Key:
1: 6.82; 2: 6.09; 3: 6.44; 4: 6.38

---

- system-name: human SLC6A19 (Homo sapiens, UniProt Q695T7)
- Construct: expressed in transfected cells
- Sequence (Q695T7 1-634): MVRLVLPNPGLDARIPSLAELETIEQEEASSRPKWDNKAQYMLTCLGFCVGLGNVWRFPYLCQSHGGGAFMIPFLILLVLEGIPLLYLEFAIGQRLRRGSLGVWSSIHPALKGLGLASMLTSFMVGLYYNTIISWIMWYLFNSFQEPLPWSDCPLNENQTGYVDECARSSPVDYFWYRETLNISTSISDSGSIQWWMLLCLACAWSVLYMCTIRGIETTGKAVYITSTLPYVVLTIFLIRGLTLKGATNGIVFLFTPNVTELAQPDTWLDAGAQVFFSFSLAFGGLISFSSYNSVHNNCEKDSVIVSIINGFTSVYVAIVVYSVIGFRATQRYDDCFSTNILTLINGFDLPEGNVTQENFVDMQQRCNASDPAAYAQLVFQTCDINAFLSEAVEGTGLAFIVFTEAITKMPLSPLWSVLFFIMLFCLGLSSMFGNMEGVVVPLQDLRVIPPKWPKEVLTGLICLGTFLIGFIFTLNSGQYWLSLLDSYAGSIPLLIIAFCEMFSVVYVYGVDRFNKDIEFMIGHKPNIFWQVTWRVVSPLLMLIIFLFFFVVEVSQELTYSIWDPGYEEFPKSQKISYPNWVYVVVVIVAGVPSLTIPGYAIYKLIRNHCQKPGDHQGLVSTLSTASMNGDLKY
- Sequence (Q9HBJ8 15-222 partner): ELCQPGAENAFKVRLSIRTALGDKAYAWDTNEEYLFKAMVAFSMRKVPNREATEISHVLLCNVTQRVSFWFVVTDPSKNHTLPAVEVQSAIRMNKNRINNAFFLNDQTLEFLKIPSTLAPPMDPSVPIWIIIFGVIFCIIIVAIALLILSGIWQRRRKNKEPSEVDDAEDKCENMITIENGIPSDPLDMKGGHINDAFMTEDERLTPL
- assay-notes: Example B2: 13C6,15N-isoleucine uptake, RapidFire mass spectrometry, in CHO cells with doxycycline-inducible expression of human SLC6A19 and TMEM27
- Type: cell-based
- experimental-conditions: read-out: SLC6A19_RapidFire Uptake Assay IC50
pIC50: −log10 of the molar value.
Parameter threshold = 6. Response is 1 (yes) when pIC50 meets or exceeds it, else 0 (no).

Use these answered entries as a reference point.
> print(dat)
                                   molecule    class
1  CN(C(=O)NCc1cc2cc(Cl)ccc2[nH]1)[C@@H]1CCCN(C(=O)[C@H]2C[C@@H]2F)C1  1 (yes)
2  CN(C(=O)NCc1cc2cc(Cl)ccc2[nH]1)[C@@H]1CCCN(C(=O)C2CCCO2)C1 (stereo partly shown)  1 (yes)

Exercise: Given CC(=O)N1CCC(C(=O)N2CCC[C@@H](N(C)C(=O)NCc3cc4cc(Cl)ccc4[nH]3)C2)C1 (stereo partly shown) , state whether its pIC50 is at least 6.
Key: 0 (no)

---

- system-name: human SLC6A19 (Homo sapiens)
- Construct: expressed in transfected cells
- assay-notes: Example B2: 13C6,15N-isoleucine uptake, RapidFire mass spectrometry, in CHO cells with doxycycline-inducible expression of human SLC6A19 and TMEM27
- Format: cell-based
- experimental-conditions: read-out: SLC6A19_RapidFire Uptake Assay IC50
experimental-readout: pIC50
Numbers only, as −log10 of the molar value.

In the examples that follow, each entry is paired with its recorded pIC50.
> print(dat)
                                   molecule  experimental.readout  experimental.result
1  COc1ccc2cc(CNC(=O)N(C)[C@@H]3CCCN(C(C)=O)C3)[nH]c2c1                 pIC50                 5.17
2  CN(C(=O)NCc1cc2ccccc2[nH]1)[C@@H]1CCCN(c2cccnn2)C1                 pIC50                 6.26
3  CC(=O)N1CCC[C@@H](N(C)C(=O)NCc2cc3cc(Cl)ccc3[nH]2)C1                 pIC50                 6.71

Dear colleague, could you send me pIC50 for each of the items below? Thanks.
1. CN(C(=O)NCc1cc2cc(Cl)ccc2[nH]1)[C@@H]1CCCN(C(=O)C2(F)CCC2)C1
2. CC(C)C(=O)N1CCC[C@@H](N(C)C(=O)NCc2cc3cc(Cl)ccc3[nH]2)C1
3. CCS(=O)(=O)CC(=O)N1CCC[C@@H](N(C)C(=O)NCc2cc3cc(Cl)ccc3[nH]2)C1

Key:
1. 6.17
2. 6.39
3. 5.19

Look at each molecule and report its pIC50.
1. CC(=O)N1CCC[C@@H](N(C)C(=O)NCc2cc3[nH]cc(C)c3cc2F)C1
2. CN(C(=O)NCc1cc2cc(Cl)ccc2[nH]1)[C@@H]1CCCN(C(=O)C2CCC(=O)N2)C1 (stereo partly shown)
3. CCc1ccc2[nH]c(CNC(=O)N(C)[C@@H]3CCCN(C(C)=O)C3)cc2c1
4. CN(C(=O)NCc1cc2cc(Cl)ccc2[nH]1)[C@@H]1CCCN(C(=O)Cc2cocn2)C1

Key:
[6.19, 5.11, 6.13, 6.16]

---

So I've got a bunch of molecules here, and I need their pIC50 values.
- system-name: human SLC6A19 (Homo sapiens)
- Construct: expressed in transfected cells
- assay-notes: Example B2: 13C6,15N-isoleucine uptake, RapidFire mass spectrometry, in CHO cells with doxycycline-inducible expression of human SLC6A19 and TMEM27
- Type: cell-based
- experimental-conditions: read-out: SLC6A19_RapidFire Uptake Assay IC50
Give bare numbers, as −log10 of the molar value.

Illustrative cases are given below, each with its answer.
> print(dat)
                                   molecule  experimental.readout  experimental.result
1  Cc1ccn(CC(=O)N2CCC[C@@H](N(C)C(=O)NCc3cc4cc(Cl)ccc4[nH]3)C2)n1                 pIC50                 6.43
2  CN(C(=O)NCc1cc2cc(Cl)ccc2[nH]1)[C@@H]1CCCN(C(=O)C2CN(S(C)(=O)=O)C2)C1                 pIC50                 5.65
3  CN(C(=O)NCc1cc2cc(Cl)ccc2[nH]1)[C@@H]1CCCN(C(=O)c2ccn(C(F)F)n2)C1                 pIC50                 6.64
4  Cc1nc(C(=O)N2CCC[C@@H](N(C)C(=O)NCc3cc4cc(Cl)ccc4[nH]3)C2)co1                 pIC50                 6.29
5  CN(C(=O)NCc1cc2cc(Cl)ccc2[nH]1)[C@@H]1CCCN(C(=O)c2cnoc2)C1                 pIC50                 6.08

Give pIC50 for each listed item.
1. COC(C)C(=O)N1CCC[C@@H](N(C)C(=O)NCc2cc3cc(Cl)ccc3[nH]2)C1 (stereo partly drawn)
2. CC(=O)N1CCC[C@@H](N(C)C(=O)NCc2cc3cc(Cl)c(OCc4cncs4)cc3[nH]2)C1
3. CCN(C(=O)NCc1cc2cc(F)c(F)cc2[nH]1)[C@@H]1CCCN(C(C)=O)C1
4. CN(C(=O)NCc1cc2cc(Cl)ccc2[nH]1)[C@@H]1CCCN(C(=O)C2CC(O)C2)C1 (stereo partly drawn)

Key:
5.20
5.91
7.01
6.08

For the 6 molecules below, give their pIC50 values.
1. CC(=O)N1CCC[C@@H](N(C)C(=O)NCc2ccc3c(C)c(C)[nH]c3c2)C1
2. CN(C(=O)NCc1cc2cc(Cl)ccc2[nH]1)[C@@H]1CCCN(C(=O)C2CCC2F)C1 (stereo partly drawn)
3. CC(=O)N1CCC[C@@H](N(C)C(=O)NCc2cc3cc(Cl)c(F)cc3[nH]2)C1
4. COC(=O)N1CCC[C@@H](N(C)C(=O)NCc2cc3cc(Cl)ccc3[nH]2)C1
5. CCc1ccc2cc(CNC(=O)N(C)[C@@H]3CCCN(C(C)=O)C3)[nH]c2c1
6. CN(C(=O)NCc1cc2cc(Cl)ccc2[nH]1)[C@@H]1CCCN(C(=O)Cc2cnn(C)c2)C1

Key:
5.53
6.59
6.75
6.95
4.89
6.25

Provide pIC50 for all items below, preserving their order.
1. CN(C(=O)NCc1cc2cc(Cl)ccc2[nH]1)[C@@H]1CCCN(C(=O)c2cccc3c2OCC3)C1
2. CN(C(=O)NCc1cc2cc(Cl)ccc2[nH]1)[C@@H]1CCCN(C(=O)Cn2cccnc2=O)C1
3. CN(C(=O)NCc1cc2cc(Cl)ccc2[nH]1)[C@@H]1CCCN(C(=O)c2ccc(O)cc2F)C1
4. Cc1conc1N1CCC[C@@H](N(C)C(=O)NCc2cc3cc(Cl)ccc3[nH]2)C1
5. Cc1noc(CC(=O)N2CCC[C@@H](N(C)C(=O)NCc3cc4cc(Cl)ccc4[nH]3)C2)n1
6. Cc1ocnc1C(=O)N1CCC[C@@H](N(C)C(=O)NCc2cc3cc(Cl)ccc3[nH]2)C1

Key:
1. 6.42
2. 5.37
3. 6.03
4. 6.59
5. 6.01
6. 5.56
